Every entry's value here was drawn from paper PMC6694038.

Kindly supply the reported Plasma concentration, max values for the records listed here.
# assay.procedure: Plasma concentrations of TAM, TOR and their metabolites by LC–MS/MS (screening study)
# settings: patients on TAM 20 mg a day, N=182
Answers are plain numbers, in ng/mL.

Examples with their reported Plasma concentration, max follow.
CC/C(=C(\c1ccccc1)c1ccc(OCCN(C)C)cc1)c1ccccc1
552.0
CC/C(=C(\c1ccc(O)cc1)c1ccc(OCCNC)cc1)c1ccccc1 [Endoxifen, endoxifen]
64.5
CC/C(=C(\c1ccc(O)cc1)c1ccc(OCCN(C)C)cc1)c1ccccc1
9.5

-- ask Query: Plasma concentration, max; subject: `CC/C(=C(\c1ccccc1)c1ccc(OCCNC)cc1)c1ccccc1`
-- reply 1090.0
